Test system: Fusarium culmorum VKM F-2303
method: Spore germination and fungal growth inhibition (absorbance)
Type: cell-based
condition-details: Fusarium culmorum; 38 h incubation, absorbance 595 nm; max tested 150 μM; mean ± SD, three replicates
Peptide text beside a SMILES is read from it.
recorded-metric: IC50 (µM)
State the answer as a number, implicitly in µM.

### Prompt Give its IC50 value. Item: C[C@@H](O)[C@H](NC(=O)[C@H](CS)NC(=O)[C@H](Cc1ccccc1)NC(=O)[C@H](CS)NC(=O)[C@H](CCCNC(=N)N)NC(=O)[C@H](CCCNC(=N)N)NC(=O)[C@H](CCCNC(=N)N)NC(=O)[C@H](Cc1ccccc1)NC(=O)CNC(=O)[C@H](CCCNC(=N)N)NC(=O)[C@H](CS)NC(=O)[C@H](CC(N)=O)NC(=O)CNC(=O)CNC(=O)[C@@H](NC(=O)[C@@H](N)Cc1ccccc1)[C@@H](C)O)C(=O)N[C@@H](CCCNC(=N)N)C(=O)O [γ58-74SlDEFL4] (H-FTGGNCRGFRRRCFCTR-OH)
### Response 42.3
